- ASSAY_SYSTEM: human sphingosine-1-phosphate receptor 1 (S1P1) (Homo sapiens (Human), UniProt P21453)
- Sequence (P21453 whole entry, looked up): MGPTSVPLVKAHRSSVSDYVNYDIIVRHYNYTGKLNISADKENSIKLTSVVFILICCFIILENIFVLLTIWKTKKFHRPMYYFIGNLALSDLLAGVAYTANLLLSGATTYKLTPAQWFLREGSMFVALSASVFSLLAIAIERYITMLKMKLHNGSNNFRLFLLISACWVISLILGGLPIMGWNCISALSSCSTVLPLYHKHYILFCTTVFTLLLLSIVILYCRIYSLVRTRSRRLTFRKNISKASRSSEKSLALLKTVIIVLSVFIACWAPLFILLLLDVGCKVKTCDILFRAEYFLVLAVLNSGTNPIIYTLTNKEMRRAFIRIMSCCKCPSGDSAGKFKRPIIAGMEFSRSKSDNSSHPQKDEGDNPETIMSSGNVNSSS
- Sequence (P32121 whole entry partner, looked up): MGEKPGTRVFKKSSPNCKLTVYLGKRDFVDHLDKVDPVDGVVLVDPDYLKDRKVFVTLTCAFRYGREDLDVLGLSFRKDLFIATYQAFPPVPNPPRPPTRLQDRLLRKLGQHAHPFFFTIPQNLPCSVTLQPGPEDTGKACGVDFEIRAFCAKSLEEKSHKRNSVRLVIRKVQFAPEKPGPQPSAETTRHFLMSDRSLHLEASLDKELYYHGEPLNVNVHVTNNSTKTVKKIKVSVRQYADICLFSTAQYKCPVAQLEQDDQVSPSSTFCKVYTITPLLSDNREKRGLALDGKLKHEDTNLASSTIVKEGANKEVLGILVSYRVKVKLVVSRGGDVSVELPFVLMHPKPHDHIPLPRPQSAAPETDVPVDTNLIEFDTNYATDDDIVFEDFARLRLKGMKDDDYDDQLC
- METHOD_SUMMARY: β-Arrestin2 recruitment assay (PathHunter), S1P1 CHO-K1 cells
- Format: cell-based
- CONDITION_PARAMETERS: β-arrestin2 recruitment, S1P1 CHO-K1 cells
Some compounds, each annotated with its measured hS1P1 B-arrestin2 pEC50.
MEASURED_ATTRIBUTE: hS1P1 B-arrestin2 pEC50

> print(dat)
                                   compound  endpoint.value
1  COc1ccc(-c2noc(-c3ccc4c(c3)nnn4C(C)C)n2)c(C)c1 [Compound 55]              >5
2  CC(C)n1nnc2cc(-c3noc(-c4ccccc4F)n3)ccc21 [Compound 307]              >5
3  CCC1(CC)CC(=O)c2cc(-c3nc(-c4cnccc4C(F)(F)F)no3)ccc2O1 [Compound 558]              >5
4  COc1cc(C)c(-c2noc(-c3ccc4c(c3)nnn4C(C)C)n2)c(OC)c1 [Compound 136]              <5

* * *

- ASSAY_SYSTEM: human sphingosine-1-phosphate receptor 1 (S1P1) (Homo sapiens (Human))
- METHOD_SUMMARY: β-Arrestin2 recruitment assay (PathHunter), S1P1 CHO-K1 cells
- Assay type: cell-based
- CONDITION_PARAMETERS: β-arrestin2 recruitment, S1P1 CHO-K1 cells
MEASURED_ATTRIBUTE: hS1P1 B-arrestin2 pEC50

> print(dat)
                                entry.smiles  endpoint.value
 1  CC(=O)Nc1ccccc1-c1coc(-c2ccc3c(c2)nnn3C(C)C)n1              <5
 2   COc1cccc2oc(-c3ccc4c(c3)nnn4CC(C)C)nc12              >5
 3  CC(C)n1nnc2cc(-c3noc(-c4ccc(-c5ccccc5)cc4)n3)ccc21              <5
 4  CC(C)n1ccc2cc(-c3noc(-c4ccccc4Br)n3)ccc21              >5
 5  Cc1cn(C)nc1-c1noc(-c2ccc3c(c2)nnn3CC(C)(C)O)n1              <5
 6  Cc1ccncc1-c1noc(-c2ccc3c(c2)nnn3C2CCC2)n1              >5
 7  CCC1(CC)CC(=O)c2cc(-c3nc(-c4ccnc(NC(C)=O)c4)no3)ccc2O1              >5
 8  CC(C)n1nnc2cc(-c3nc(-c4ccccc4N)co3)ccc21              >5
 9  CC(C)n1nnc2cc(-c3nc(-c4ccncc4C(F)(F)F)no3)ccc21              >5
10  COc1ncccc1-c1noc(-c2ccc3c(c2)nnn3C(C)C)n1              >5
11  Cc1ccsc1-c1noc(-c2ccc3c(c2)nnn3CC(C)(C)O)n1              >5
12  CC(C)n1nnc2cc(-c3nc(-c4ccc(Oc5ccccc5)cc4)no3)ccc21              <5
13  Cn1cnc2ccc(-c3nnc(-c4ccc(NCC(F)F)c(C#N)c4)o3)cc21              >5
14  CC(C)n1nnc2cc(-c3noc(-c4cccc(COc5ccccc5)c4)n3)ccc21              <5
15  CC(C)n1nnc2cc(-c3nc(-c4ccccc4O)no3)ccc21              <5
16  COc1ccccc1-c1noc(-c2ccc3c(c2)nnn3C2CC2)n1              >5
17  CCC1(CC)CC(=O)c2cc(-c3nc(-c4cccnc4)ns3)ccc2O1              <5
18  CC(C)n1nnc2cc(-c3nc(-c4ccc(COc5ccccc5)cc4)no3)ccc21              <5
19  Cc1ccncc1-c1noc(-c2ccc3c(c2)NC(=O)CN3)n1              <5
20  Cc1ccccc1-c1cnc(-c2ccc3c(c2)nnn3C(C)C)s1              <5
